test: Safety index, ratio of IC50 for HEK293 cells to IC50 for human DU-145 cells; assay type: toxicity; conditions: HEK293 cells versus DU-145 cells, read-out: Ratio IC50
metric: selectivity ratio
Give bare numbers.

Tell me the measured selectivity ratio of `Cc1nc2c(c(C)c1O)/C(=C/c1cccnc1)C(=O)N2` , please. 27.5

---

Consider the following compounds; for each one, report its selectivity ratio.
assay: Safety index, ratio of IC50 for CHO-K1 cells to IC50 for human DU-145 cells; format: toxicity; details: Chinese hamster (CHO-K1), CHO-K1 cells versus DU-145 cells, read-out: Ratio IC50

[[record]]
smiles_record = "Cc1nc2c(c(C)c1O)/C(=C/c1ccc(N(C)C)cc1)C(=O)N2"
metric = "selectivity ratio"
value_measured = "> 81.8"


Tell me the measured selectivity ratio of `Cc1nc2c(c(C)c1O)/C(=C/c1cccnc1)C(=O)N2` , please. 65.4

---

assay: Safety index, ratio of IC50 for CHO-K1 cells to IC50 for human MCF7 cells; assay type: toxicity; details: Chinese hamster (CHO-K1), CHO-K1 cells versus MCF7 cells, read-out: Ratio IC50
metric: selectivity ratio
Numbers only.

Tell me the measured selectivity ratio of `Cc1nc2c(c(C)c1O)/C(=C/c1cccnc1)C(=O)N2` , please. 4.5

---

experiment: Safety index, ratio of IC50 for HEK293 cells to IC50 for human U-937 cells; format: toxicity; conditions: HEK293 cells versus U-937 cells, read-out: Ratio IC50
metric: selectivity ratio
One number for each entry.

Tell me the measured selectivity ratio of `Cc1nc2c(c(C)c1O)/C(=C/c1cccnc1)C(=O)N2` , please. 2.3

---

biological target: Platelet-derived growth factor receptor beta (Homo sapiens); assay: Inhibition of human PDGFRbeta using MEK1 as substrate incubated for 40 mins by gamma33P-ATP based scintillation counter analysis
Sequence (P09619 whole entry): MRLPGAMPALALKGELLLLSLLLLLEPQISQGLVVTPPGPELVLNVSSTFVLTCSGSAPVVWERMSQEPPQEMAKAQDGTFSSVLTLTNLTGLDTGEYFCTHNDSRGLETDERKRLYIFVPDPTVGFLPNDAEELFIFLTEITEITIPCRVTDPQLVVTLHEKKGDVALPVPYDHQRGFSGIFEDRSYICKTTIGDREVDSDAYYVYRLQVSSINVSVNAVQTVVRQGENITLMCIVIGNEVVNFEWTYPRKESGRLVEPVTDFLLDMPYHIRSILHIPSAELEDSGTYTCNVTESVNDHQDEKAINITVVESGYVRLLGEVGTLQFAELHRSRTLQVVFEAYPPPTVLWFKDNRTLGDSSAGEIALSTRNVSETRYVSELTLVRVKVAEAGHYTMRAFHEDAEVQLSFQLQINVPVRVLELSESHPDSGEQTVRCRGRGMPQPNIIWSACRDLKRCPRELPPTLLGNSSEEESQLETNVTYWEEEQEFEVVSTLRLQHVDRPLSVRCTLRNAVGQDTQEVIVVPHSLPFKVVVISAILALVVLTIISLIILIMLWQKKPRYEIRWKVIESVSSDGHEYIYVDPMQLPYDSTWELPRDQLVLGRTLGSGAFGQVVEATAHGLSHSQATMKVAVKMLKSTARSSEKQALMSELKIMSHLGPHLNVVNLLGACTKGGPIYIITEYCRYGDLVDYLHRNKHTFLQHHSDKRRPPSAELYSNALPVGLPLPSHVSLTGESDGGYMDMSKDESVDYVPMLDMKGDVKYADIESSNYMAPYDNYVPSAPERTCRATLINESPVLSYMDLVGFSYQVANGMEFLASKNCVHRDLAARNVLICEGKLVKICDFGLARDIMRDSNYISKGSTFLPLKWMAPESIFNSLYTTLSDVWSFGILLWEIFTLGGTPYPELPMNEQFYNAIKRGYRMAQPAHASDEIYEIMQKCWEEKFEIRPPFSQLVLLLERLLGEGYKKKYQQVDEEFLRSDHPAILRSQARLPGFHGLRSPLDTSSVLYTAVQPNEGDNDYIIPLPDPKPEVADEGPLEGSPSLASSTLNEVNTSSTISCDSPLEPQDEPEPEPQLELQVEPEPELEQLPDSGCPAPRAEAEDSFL
metric: pIC50
One number for each entry, as −log10 of the molar value.

Tell me the measured pIC50 of `Cc1nc2c(c(C)c1O)/C(=C/c1ccc3ccccc3n1)C(=O)N2` , please. 6.00

---

assay: Safety index, ratio of IC50 for HEK293 cells to IC50 for human HT-29 cells; type: toxicity; conditions: HEK293 cells versus HT-29 cells, read-out: Ratio IC50
metric: selectivity ratio
Give bare numbers.

Tell me the measured selectivity ratio of `Cc1nc2c(c(C)c1O)/C(=C/c1cccnc1)C(=O)N2` , please. 1.7

---

assay: Safety index, ratio of IC50 for CHO-K1 cells to IC50 for human A549 cells; assay type: toxicity; conditions: Chinese hamster (CHO-K1), CHO-K1 cells versus A549 cells, read-out: Ratio IC50
metric: selectivity ratio
Numbers only.

Tell me the measured selectivity ratio of `Cc1nc2c(c(C)c1O)/C(=C/c1cccnc1)C(=O)N2` , please. 5.7

---

assay: Safety index, ratio of IC50 for CHO-K1 cells to IC50 for human PANC-1 cells; format: toxicity; details: Chinese hamster (CHO-K1), CHO-K1 cells versus PANC-1 cells, read-out: Ratio IC50
metric: selectivity ratio
One number for each entry.

Tell me the measured selectivity ratio of `Cc1nc2c(c(C)c1O)/C(=C/c1cccnc1)C(=O)N2` , please. 1.5

---

molecular target: Vascular endothelial growth factor receptor 2 (Homo sapiens)
Sequence (P35968 whole entry): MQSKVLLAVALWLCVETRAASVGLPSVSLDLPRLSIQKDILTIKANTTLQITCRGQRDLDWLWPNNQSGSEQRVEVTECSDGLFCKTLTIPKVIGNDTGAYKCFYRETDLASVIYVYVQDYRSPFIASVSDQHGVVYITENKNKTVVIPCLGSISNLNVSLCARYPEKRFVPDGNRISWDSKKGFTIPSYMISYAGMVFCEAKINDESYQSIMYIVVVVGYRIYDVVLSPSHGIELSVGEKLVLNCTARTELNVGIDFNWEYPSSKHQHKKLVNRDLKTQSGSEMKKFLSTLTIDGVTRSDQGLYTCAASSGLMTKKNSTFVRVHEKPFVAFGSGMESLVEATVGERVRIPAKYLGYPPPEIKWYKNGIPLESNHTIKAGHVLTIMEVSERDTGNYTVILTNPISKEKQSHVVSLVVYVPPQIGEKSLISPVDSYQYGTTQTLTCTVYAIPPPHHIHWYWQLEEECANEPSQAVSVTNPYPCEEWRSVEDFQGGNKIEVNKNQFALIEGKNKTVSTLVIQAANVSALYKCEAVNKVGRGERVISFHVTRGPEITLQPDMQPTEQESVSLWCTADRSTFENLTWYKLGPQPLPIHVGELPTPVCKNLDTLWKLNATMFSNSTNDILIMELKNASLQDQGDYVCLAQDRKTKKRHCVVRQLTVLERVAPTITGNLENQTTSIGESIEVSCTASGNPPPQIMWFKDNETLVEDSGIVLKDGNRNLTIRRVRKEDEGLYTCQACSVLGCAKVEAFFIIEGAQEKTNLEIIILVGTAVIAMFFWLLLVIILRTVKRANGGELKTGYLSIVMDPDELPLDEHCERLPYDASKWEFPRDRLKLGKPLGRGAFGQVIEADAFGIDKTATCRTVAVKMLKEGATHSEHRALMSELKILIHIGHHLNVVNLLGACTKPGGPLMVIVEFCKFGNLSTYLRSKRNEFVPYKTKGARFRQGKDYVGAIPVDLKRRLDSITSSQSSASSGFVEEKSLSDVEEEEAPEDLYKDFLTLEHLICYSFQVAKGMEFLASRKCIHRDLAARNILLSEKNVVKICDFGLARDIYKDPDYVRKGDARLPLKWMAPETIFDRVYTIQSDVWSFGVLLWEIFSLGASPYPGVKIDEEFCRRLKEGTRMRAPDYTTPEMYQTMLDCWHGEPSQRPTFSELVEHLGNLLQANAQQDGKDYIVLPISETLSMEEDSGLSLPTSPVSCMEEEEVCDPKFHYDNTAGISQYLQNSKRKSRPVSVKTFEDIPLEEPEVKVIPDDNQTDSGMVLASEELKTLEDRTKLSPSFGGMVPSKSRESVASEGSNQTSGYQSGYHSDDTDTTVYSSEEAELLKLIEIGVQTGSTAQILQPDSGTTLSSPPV
metric: IC50

Tell me the measured IC50 of `Cc1nc2c(c(C)c1O)/C(=C/c1ccc3ccccc3n1)C(=O)N2` , please. > 10 µM
